# Assay system: human DGKα (Homo sapiens)
# Construct: TVMV protease cleavage site (C); Hexa-His (C); made in house; host or cells: Sf9 insect cells (baculovirus, Bac-to-Bac)
# Sequence (P23743 with tags, fused parts or gaps): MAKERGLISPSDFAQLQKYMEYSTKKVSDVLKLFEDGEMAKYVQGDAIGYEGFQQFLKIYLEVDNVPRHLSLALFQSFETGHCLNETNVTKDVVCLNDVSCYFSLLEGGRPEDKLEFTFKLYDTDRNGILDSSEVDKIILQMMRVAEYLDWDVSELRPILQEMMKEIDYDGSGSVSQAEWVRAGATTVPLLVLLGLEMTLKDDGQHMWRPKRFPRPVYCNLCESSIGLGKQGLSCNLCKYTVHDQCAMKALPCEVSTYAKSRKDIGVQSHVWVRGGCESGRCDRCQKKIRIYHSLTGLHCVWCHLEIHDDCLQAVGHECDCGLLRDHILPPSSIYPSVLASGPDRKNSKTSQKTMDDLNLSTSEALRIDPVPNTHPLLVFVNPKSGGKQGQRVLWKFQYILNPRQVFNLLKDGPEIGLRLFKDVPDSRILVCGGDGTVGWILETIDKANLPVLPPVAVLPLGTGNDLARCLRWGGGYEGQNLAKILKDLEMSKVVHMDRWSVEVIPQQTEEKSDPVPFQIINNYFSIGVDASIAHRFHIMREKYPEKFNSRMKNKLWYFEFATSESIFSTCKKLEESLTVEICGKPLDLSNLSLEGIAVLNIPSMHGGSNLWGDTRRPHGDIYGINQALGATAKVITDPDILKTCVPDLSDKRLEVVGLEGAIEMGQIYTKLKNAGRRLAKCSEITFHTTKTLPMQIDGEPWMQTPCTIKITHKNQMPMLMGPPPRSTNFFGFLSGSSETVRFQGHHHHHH
# Protocol text: DGKα LIPGLO assay (extruded liposome substrate), in vitro DGK inhibition
# Type: biochemical
# Condition context: liposome (LIPGLO) assay; read-out: DGKa LIPGLO IC50
pIC50: −log10 of the molar value.
The threshold is inclusive: pIC50 of exactly 6 counts as Yes; values below receive No.

Has CC(c1ccc(F)cn1)N1C[C@H](C)N(c2cc(=O)n(C)c3ccc(C#N)nc23)C[C@H]1C (single isomer, unassigned) [Example 641] a recorded pIC50 greater than or equal to 6? No

Has Cc1c(N2CCN(C(c3ccc(F)cc3)c3ccc(F)cc3)[C@H](C)C2)c2nc(C#N)ccc2n(C)c1=O a recorded pIC50 greater than or equal to 6? No

Has C[C@@H]1CN(c2cc(=O)n(C)c3ccc(C#N)nc23)[C@@H](C)CN1Cc1c(F)cc(F)cc1F a recorded pIC50 greater than or equal to 6? Yes

Has C[C@@H]1CN(c2cc(=O)n(C)c3ccc(C#N)nc23)[C@@H](C)CN1Cc1ccc(F)cc1F a recorded pIC50 greater than or equal to 6? Yes

Has CC[C@@H]1CN(c2cc(=O)n(C)c3ccc(C#N)nc23)[C@@H](C)CN1C(C)c1ccc(C(F)(F)F)cc1 (single isomer, unassigned) [Example 1094] a recorded pIC50 greater than or equal to 6? Yes

***
Has C[C@@H]1CN(c2cc(=O)n(C)c3ccc(C#N)nc23)[C@@H](C)CN1C(c1ccc(Cl)cc1)c1ccncn1 (single isomer, unassigned) [Example 397] a recorded pIC50 greater than or equal to 6? No

* * *

# Assay system: human DGKζ (Homo sapiens, UniProt Q13574)
# Construct: TVMV protease cleavage site (C); Hexa-His (C); made in house; host or cells: Sf9 insect cells (baculovirus, Bac-to-Bac)
# Sequence (Q13574 with tags, fused parts or gaps isoform Q13574-4): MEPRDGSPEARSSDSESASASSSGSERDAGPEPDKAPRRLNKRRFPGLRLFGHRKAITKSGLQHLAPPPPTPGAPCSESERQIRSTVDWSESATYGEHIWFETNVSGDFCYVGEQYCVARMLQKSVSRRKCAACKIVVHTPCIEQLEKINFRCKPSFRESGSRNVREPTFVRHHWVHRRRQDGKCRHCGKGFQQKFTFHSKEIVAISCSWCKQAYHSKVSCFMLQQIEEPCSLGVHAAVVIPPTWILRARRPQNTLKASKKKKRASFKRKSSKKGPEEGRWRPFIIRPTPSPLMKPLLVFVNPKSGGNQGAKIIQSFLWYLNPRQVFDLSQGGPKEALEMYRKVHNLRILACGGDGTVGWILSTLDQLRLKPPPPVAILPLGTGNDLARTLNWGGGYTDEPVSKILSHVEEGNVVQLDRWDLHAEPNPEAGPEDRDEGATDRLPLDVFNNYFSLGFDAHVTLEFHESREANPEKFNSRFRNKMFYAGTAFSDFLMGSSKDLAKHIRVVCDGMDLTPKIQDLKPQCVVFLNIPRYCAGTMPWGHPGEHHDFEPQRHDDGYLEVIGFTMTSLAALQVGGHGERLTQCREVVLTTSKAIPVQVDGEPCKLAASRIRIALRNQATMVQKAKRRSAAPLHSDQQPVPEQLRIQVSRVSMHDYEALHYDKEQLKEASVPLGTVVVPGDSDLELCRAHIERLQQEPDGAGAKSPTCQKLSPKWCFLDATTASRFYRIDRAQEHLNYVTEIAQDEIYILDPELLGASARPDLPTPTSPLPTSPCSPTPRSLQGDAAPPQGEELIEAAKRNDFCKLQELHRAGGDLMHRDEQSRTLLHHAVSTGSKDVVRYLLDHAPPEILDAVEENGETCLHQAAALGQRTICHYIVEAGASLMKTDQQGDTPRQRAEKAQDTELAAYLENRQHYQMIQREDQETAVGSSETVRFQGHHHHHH
# Protocol text: DGKζ LIPGLO assay (extruded liposome substrate), in vitro DGK inhibition
# Assay type: biochemical
# Condition context: liposome (LIPGLO) assay; read-out: DGKz LIPGLO IC50
# strict inequality: IC50 < 2000 nM yields True, everything else yields False

Please determine if Cn1c(=O)cc(N2CCN(Cc3ccc(F)cc3Cl)C(COC(F)F)C2)c2nc(C#N)ccc21 (single isomer, unassigned) [Example 1185] is below 2000 nM in terms of IC50. False

Please determine if CCC(c1ccc(OC(F)(F)F)cc1)N1C[C@H](CC)N(c2cc(=O)n(C)c3ccc(C#N)nc23)C[C@H]1CC (single isomer, unassigned) [Example 1060] is below 2000 nM in terms of IC50. True

Please determine if CC[C@H]1CN(C(C)c2ccc(F)cc2)[C@H](C)CN1c1cc(=O)n(C)c2ccc(C#N)nc12 (single isomer, unassigned) [Example 1136] is below 2000 nM in terms of IC50. False

Please determine if COC(=O)C1CN(C(c2ccc(F)cc2)c2ccc(F)cc2)CCN1c1c(C#N)c(=O)n(C)c2ccc(C#N)nc12 (stereo not drawn) [Example 114] is below 2000 nM in terms of IC50. True

Please determine if CC(C)c1ccc(C(C)N2C[C@H](C)N(c3cc(=O)n(C)c4ccc(C#N)nc34)C[C@H]2C)cc1 (single isomer, unassigned) [Example 1233] is below 2000 nM in terms of IC50. True

Please determine if CC(c1cccc(OC(F)F)c1)N1C[C@H](C)N(c2cc(=O)n(C)c3ccc(C#N)nc23)C[C@H]1C (single isomer, unassigned) [Example 1272] is below 2000 nM in terms of IC50. True

Please determine if C[C@@H]1CN(c2cc(=O)n(C)c3ccc(C#N)nc23)[C@@H](C)CN1C(c1ccc(F)cc1)c1ncco1 (stereo partly drawn) [Example 717] is below 2000 nM in terms of IC50. False

Please determine if CCOC[C@@H]1CN(c2cc(=O)n(C)c3ccc(C#N)nc23)[C@@H](C)CN1C(C)c1ccc(OC(F)(F)F)cc1 (single isomer, unassigned) [Example 1398] is below 2000 nM in terms of IC50. True

Please determine if CC[C@@H]1CN(c2cc(=O)n(C)c3ccc(C#N)nc23)[C@@H](C)CN1C(C)c1ccc(C(F)(F)F)cc1F (single isomer, unassigned) [Example 1085] is below 2000 nM in terms of IC50. True

Please determine if C[C@@H]1CN(c2c(C#N)c(=O)n(C)c3cccnc23)[C@@H](C)CN1C(c1ccc(F)cc1)c1ccc(F)cc1 is below 2000 nM in terms of IC50. False

***
Please determine if CC[C@H]1CN(C(c2ccc(Cl)cc2)c2ccc(F)cn2)[C@H](CC)CN1c1cc(=O)n(C)c2ccc(C#N)nc12 (single isomer, unassigned) [Example 1033] is below 2000 nM in terms of IC50. True

Please determine if CCC(c1ccc(OC(C)C)cc1)N1C[C@H](C)N(c2cc(=O)n(C)c3ccc(C#N)nc23)C[C@H]1C (single isomer, unassigned) [Example 1449] is below 2000 nM in terms of IC50. True

Recorded values, source patent US10669272B2.
